target: Muscarinic acetylcholine receptor M1 (Homo sapiens)
method: Agonist activity at human muscarinic M1 receptor at 30 uM relative to acetylcholine
Assay type: functional
Each entry below carries its recorded Activity.
measure: Activity

molecule | observed.value
CCOC(=O)N1C2CCC1CC(N1CCC[C@@H](NC(=O)c3ccccc3)C1)C2 (mixture of isomers) | 75%
CCOC(=O)N1C2CCC1CC(N1CCC[C@H](NC(=O)c3ccccc3)C1)C2 (mixture of isomers) | 12%
COC(=O)N1[C@@H]2CC[C@H]1C[C@H](NCCNC(=O)c1ccccc1)C2 | 21%
CCOC(=O)N1C[C@H]2CC[C@@H](C1)[C@H]2NCCNC(=O)c1cccc(Cl)c1 | 52%
CCOC(=O)N1[C@@H]2CC[C@H]1C[C@H](NCCNC(=O)c1ccncc1)C2 | 6%
CCOC(=O)N1C[C@H]2CC[C@@H](C1)[C@H]2NCCNC(=O)C1CCCCC1 | 37%
CCOC(=O)N1C[C@@H]2C(NCCNC(=O)c3ccccc3C)[C@@H]2C1 (some centres not stated) | 60%
CCOC(=O)N1C2CCC1CC(N1CC[C@@H](NC(=O)c3ccccc3C)C1)C2 (mixture of isomers) | 55%
CCOC(=O)N1C[C@H]2CC[C@@H](C1)[C@H]2NCCNC(=O)N1CCCCC1 | 9%
CCOC(=O)N1[C@@H]2CC[C@H]1CC(NCCNC(=O)c1ccc(C)c(F)c1)C2 (mixture of isomers) | 40%
CCOC(=O)N1C2CCC1CC(N1CCC[C@@H](NC(=O)c3ccccc3C)C1)C2 (mixture of isomers) | 75%
CCOC(=O)N1[C@@H]2CC[C@H]1C[C@@H](NCCNC(=O)c1ccccc1)C2 | 34%
CCOC(=O)N1C2CCC1CC(N1CC[C@H](NC(=O)c3ccccc3)C1)C2 (mixture of isomers) | 39%
CCOC(=O)N1[C@@H]2CC[C@H]1C[C@H](NCCNC(=O)c1ccc(F)c(F)c1)C2 | 50%
COC(=O)C12CCC(NCCNC(=O)c3ccccc3)(CC1)CC2 | 18%
CCOC(=O)N1C[C@H]2CC[C@@H](C1)[C@H]2NCCNC(=O)c1ccccc1C | 51%
CCOC(=O)N1C2CCC1CC(N1CCC[C@H](NC(=O)c3ccccc3C)C1)C2 (mixture of isomers) | 52%
